- System: HCT-15 colon
- test: NCI-60 one-dose screen, 48 h
- conditionNotes: 10 µM
- Description: Growth inhibition of the HCT-15 human tumor cell line is measured as a screen for anti-cancer activity. Cells are grown in 96 well plates and exposed to the test compound for 48 hours. Compounds are tested at a single concentration, which is 10^-5 M for most compounds. The reported endpoint is percent growth (GI% or GIPRCNT), where numbers from 0 - 100% represent growth inhibition, and numbers from -100% - 0 represent cell death. For example, a value of 40 represents 60% growth inhibition. […]
The panel holds about 83,000 compounds, 20% with a hit somewhere; the sample as a whole holds those more often. Active and inactive are the calls of the source. Rule for the calls: active = growth percent below 10; inactive = the rest. Where a SMILES comes first, the peptide text is derived from it. Bridges are numbered along the chain shown (N, C = ends). [ ]: non-standard residue; d: D form. The star is where a group is joined. ξ: configuration not given here. ξNMePhe(4-NMe2) = CNC(Cc1ccc(N(C)C)cc1)C(=O)O; Picolinoyl(3-OH) = O=C(c1ncccc1O)*; ξPip(4-oxo) = O=C1CCNC(C(=O)O)C1; Phg = N[CH](C(=O)O)c1ccccc1; Abu = CC[CH](N)C(=O)O
Labels: yes (1) for active, no (0) for inactive

compound	classAssignment
O=C(O)c1ccnc(Br)c1	no (0)
N#CCCN(CCCN1CCOCC1)CN1C(=O)c2ccccc2C1=O	no (0)
CC1(C)N=C(N)N=C(N)N1c1ccc(Cl)cc1	no (0)
CCc1ccc(/C(C#N)=C/C=C/c2ccccc2)cc1	no (0)
CCn1c(=O)n(C)c2c(=O)n(C)c(=O)n(C)c21	no (0)
O=C(O)/C=C/C(=O)NCc1ccccc1	no (0)
Cc1cc(C(O)(c2ccc(Nc3ccccc3)cc2)c2ccc(Nc3ccc(S(=O)(=O)O)cc3)cc2)ccc1N (stereo not drawn)	yes (1)
CC(=O)c1ccc2c(ccc3ccccc32)c1	no (0)
O=C(Nc1ccccc1)OCCc1ccccc1	no (0)
Oc1ccccc1O	no (0)
Nc1ccc(C(=O)c2ccc(N)c(Br)c2)cc1Br	no (0)
CC1=NN(c2ccccc2)C(=O)/C1=C\N1CC(=O)NC1=S	no (0)
C=CCNc1ccccc1	no (0)
CC1(C(N)=O)CCC(C(=O)O)C1(C)C (stereo not drawn)	no (0)
Nc1ccccc1SC(CC(=O)c1ccccc1)c1c(Cl)cccc1Cl (stereo not drawn)	no (0)
CCC1NC(=O)C(NC(=O)c2ncccc2O)C(C)OC(=O)C(c2ccccc2)NC(=O)C2CC(=O)CCN2C(=O)C(Cc2ccc(N(C)C)cc2)N(C)C(=O)C2CCCN2C1=O (stereo not drawn) (tested in a mixture with another compound) ({Picolinoyl(3-OH)}-T[Abu]P[ξNMePhe(4-NMe2)][ξPip(4-oxo)][Phg]; ester 1-C; configuration not given here)	no (0)
CCCCC/C=N/Nc1nc(C)cc(=O)[nH]1	no (0)
O=C(N/N=C/c1ccccc1O)Nc1nn[nH]n1	no (0)
CCN(CC)CCNc1ccc(CO)c2sc3ccccc3c(=O)c12	no (0)
O=C(Nc1cccc(NC(=O)Nc2cc(C(F)(F)F)ccc2Cl)c1)Nc1cc(C(F)(F)F)ccc1Cl	no (0)
CC(C)(C)n1nc(C2CC2)c(Br)c1NC(=O)c1ccccc1F	no (0)
S=c1[nH]ccn1-c1ccccc1Cl	no (0)
COc1ccc(NC(=O)CCl)cc1	no (0)
